Biological target: T1, human Aβ peptide (1-40) biotinylated at the C terminus (human, UniProt P05067 672-711, biotinylated at the C-terminus)
T1 construct: domain: β-amyloid peptide (1-40); Numbers 1-40 count on the β-amyloid peptide, not on APP; also called beta-amyloid 1-40 peptide (biotinylated at the C-terminus); streptavidin-captured beta-amyloid (1-40)
T1 sequence (P05067 672-711 limits assumed): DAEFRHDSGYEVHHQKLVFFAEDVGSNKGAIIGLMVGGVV
Test: Aβ binding ELISA, human Aβ (1-40) biotinylated at the C terminus
# key: entry, value: EC50
I only need the number, in µg/mL, no unit after it.

Some solved cases for reference:
[[record]]
binder = "Humanised 2E7 variant H1L1 (antibody, human IgG1, kappa, V domains shown, Human IgG1 with L235A and G237A, human kappa; also called L1+H1) VH: EVQLVESGGGLVQPGGSLRLSCAASGFTFSDNGMAWVRQAPGKGLEWVSFISNLAYSIDYADTVTGRFTISRDNAKNSLYLQMNSLRAEDTAVYYCVSGTWFAYWGQGTLVTVSS VL: DIVMTQSPLSLPVTPGEPASISCRVSQSLLHSNGYTYLHWYLQKPGQSPQLLIYKVSNRFSGVPDRFSGSGSGTDFTLKISRVEAEDVGVYYCSQTRHVPYTFGGGTKVEIKR"
value_units = "µg/mL"
assay_value = 0.047

[[record]]
binder = "Humanised 2E7 variant H3L1 (antibody, human IgG1, kappa, V domains shown, Human IgG1 with L235A and G237A, human kappa; also called L1+H3) VH: EVQLVESGGGLVQPGGSLRLSCAASGFTFSDNGMAWVRQAPGKGLEWISFISNLAYSIDYADTVTGRFTISRDNAKNSLYLQMNSLRAEDTAVYYCVSGTWFAYWGQGTLVTVSS VL: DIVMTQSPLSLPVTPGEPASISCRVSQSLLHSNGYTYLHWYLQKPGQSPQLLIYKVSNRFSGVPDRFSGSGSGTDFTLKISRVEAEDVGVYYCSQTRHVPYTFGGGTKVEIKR"
value_units = "µg/mL"
assay_value = 0.04

[[record]]
binder = "Humanised 2E7 variant H2L1 (antibody, human IgG1, kappa, V domains shown, Human IgG1 with L235A and G237A, human kappa; also called L1+H2; H2L1 whole IgG) VH: EVQLVESGGGLVQPGGSLRLSCAVSGFTFSDNGMAWVRQAPGKGLEWVSFISNLAYSIDYADTVTGRFTISRDNAKNSLYLQMNSLRAEDTAVYYCVSGTWFAYWGQGTLVTVSS VL: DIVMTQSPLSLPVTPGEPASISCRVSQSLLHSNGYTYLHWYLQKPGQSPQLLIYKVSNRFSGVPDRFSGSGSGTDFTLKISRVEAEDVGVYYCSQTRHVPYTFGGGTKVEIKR"
value_units = "µg/mL"
assay_value = 0.041


Continue with the binder presented below.
Inquiry: Requested field: EC50. Item: Chimeric 2E7 antibody (2E7c) (antibody, human IgG1, V domains shown, Parent murine V regions on human IgG1 (L235A, G237A) and human C kappa; also called 2E7c Chimera; not shown: human IgG1 heavy chain constant region, Fc mutated (L235A, G237A); human C kappa constant region) VH: EVKLVESGGGLVQPGGSLKLSCAVSGFTFSDNGMAWVRQAPRKGPEWIAFISNLAYSIDYADTVTGRFTISRDNAKNTLYLEMSSLRSEDTAMYYCVSGTWFAYWGQGTLVTVSA VL: DVVLTQTPLSLPVSLGDQASISCRVSQSLLHSNGYTYLHWYLQKPGQSPKLLIYKVSNRFSGVPDRFSGSGSGTDFTLKISRVEAEDLGVYFCSQTRHVPYTFGGGTKLEIK
Reply text: 0.044
